Listed here: items and their measured pKd.
MEASURED_ON: T1, recombinant His-tagged human tryptase beta 1 monomer (human, UniProt Q15661 31-275)
T1 construct: also called His6-tagged tryptase monomer; human tryptase b1 monomer
ASSAY_COMMENT: SPR (BIAcore T200); IgG1 captured by anti-human Fc, His-tagged monomer injected
Note: pKd values are expressed as the negative base-10 logarithm of concentration in M.

Answered examples (4):
| BINDER | OBSERVABLE | ENDPOINT_VALUE |
| --- | --- | --- |
| hu31A.v13 IgG1 (antibody, V domains shown) VH: EVQLVESGGGLVQPGGSLRLSCAASGFTFSDYGMVWVRQAPGKGLEWVAFISSGSSTVYYADTMKGRFTISRDNSKNTLYLQMNSLRAEDTAVVYCTRRDNYDWYFDVWGQGTLVTVSS VL: DIQMTQSPSSLSASVGDRVTITCSASSSVTYMYWYQQKPGKAPKLLIYRTSDLASGVPSRFSGSGSGTDFTLTISSLQPEDFATYYCQHYHSYPLTFGQGTKVEIK | pKd | 8.02 |
| huE104.v7 IgG1 (antibody, V domains shown) VH: EVQLVESGPGLVKPSETLSLTCTVSRFSLIGYAITWVRQPPGKGLEWIGGISSAATTFYSSWAKSRSTISRDTSKNQVSLKLSSVTAADTAVYFCARDPRGYGAALDRLDLWGQGTLVTVSS VL: DAQLTQSPSSLSASVGDRVTITCQSIKSVYNNRLGWYQQKPGKPPKLLIYETSILTSGVPSRFSGSGSETDFTLTISSLQPEDFATYFCAGGFDRSGDTTFGQGTKVEIK | pKd | 9.60 |
| huE104.v4 IgG1 (antibody, V domains shown) VH: EVQLVESGGGLVQPGGSLRLSCAVSRFSLIGYAITWVRQAPGKGLEWIGGISSAATTFYSSWAKSRSTISRDTSKNTVYLQMNSLRAEDTAVYFCARDPRGYGAALDRLDLWGQGTLVTVSS VL: DIQMTQSPSSLSASVGDRVTITCQSIKSVYNNRLGWYQQKPGKAPKLLIYETSILTSGVPSRFSGSGSGTDFTLTISSLQPEDFATYYCAGGFDRSGDTTFGQGTKVEIK | pKd | 9.36 |
| hu31A.v12 IgG1 (antibody, V domains shown, also called v12 (of hu31A)) VH: EVQLVESGGGLVQPGGSLRLSCAASGFTFSDYGMVWVRQAPGKGLEWVAFISSGSSTVYYADTMKGRFTISRDNSKNTLYLQMNSLRAEDTAVYYCTRRNYDDWYFDVWGQGTLVTVSS VL: DIQLTQSPSSLSASVGDRVTITCSASSSVTYMYWYQQKPGKSPKPWIYRTSDLASGVPSRFSGSGSGTDYTLTISSLQPEDFATYYCQHYHSYPLTFGQGTKVEIK | pKd | 9.37 |

Next:
Query block: Consider the binder huE104.v8 IgG1 (antibody, V domains shown) VH: EVQLVESGGGLVQPGGSLRLSCAVSRFSLIGYAITWVRQAPGKGLEWIGGISSAATTFYSSWAKSRSTISRDTSKNTVYLQMNSLRAEDTAVYFCARDPRGYGAALDRLDLWGQGTLVTVSS VL: DAQLTQSPSSLSASVGDRVTITCQSIKSVYNNRLGWYQQKPGKPPKLLIYETSILTSGVPSRFSGSGSETDFTLTISSLQPEDFATYFCAGGFDRSGDTTFGQGTKVEIK . State its measured pKd.
Result block: 9.62

The origin of these recorded values is patent US20180230233A1.
